Data origin, for the record: ChEMBL document CHEMBL1153685

# Species: Homo sapiens
# experimentalProtocol: The compound was tested in vitro for its anti-platelet activity against human platelets in presence of ADP
# Assay type: functional
endpointLabel: IC50 (nM)
One number for each entry, in nM.

# compoundStructure, IC50 (nM)
measured = [
    ("CC(C)[C@H](NC(=O)[C@H](CC(=O)O)NC(=O)CCCOc1ccc(C(=N)N)cc1)C(=O)N1CCS(=O)(=O)CC1", 30),
    ("CC(C)[C@H](NC(=O)[C@H](CC(=O)O)NC(=O)CCCOc1ccc(C(=N)N)cc1)C(=O)O", 100),
    ("COc1ccc(CCNC(=O)[C@H](CC(=O)O)NC(=O)CCCOc2ccc(C(=N)N)cc2)cc1", 440),
    ("COc1ccc(CCNC(=O)[C@H](CC(=O)O)NC(=O)CCCOc2ccc(C(=N)N)cc2)cc1OC", 540),
]

Give the measured IC50 of CCN(CC)C(=O)[C@@H](NC(=O)[C@H](CC(=O)O)NC(=O)CCCOc1ccc(C(=N)N)cc1)C(C)C . 250
